# Test system: 3D7 line of P. falciparum
# procedure.details: P. falciparum asexual intraerythrocytic growth inhibition
# Format: cell-based
# recorded.conditions: Plasmodium falciparum, 3D7, read-out: IC50 (Pf3D7)
reported.metric: IC50 (nM)
Please reply with the bare figure in nM and do not write the unit itself.

Worked examples follow.
>  <compound>
CCN(CC)CCCC(C)Nc1ccnc2cc(Cl)ccc12 (stereo not shown) [chloroquine, reference compound]

>  <IC50, nM>
6.8

$$$$
>  <compound>
O=C(CCCCCCC(=O)Nc1ccccc1)NO [SAHA, vorinostat, reference compound]

>  <IC50, nM>
170

$$$$
>  <compound>
Cc1cc(C)cc(C(=O)N(CC(=O)NCc2ccccc2)Cc2ccc(C(=O)NO)cc2)c1

>  <IC50, nM>
37

$$$$

Q) For 3D7 line of P. falciparum, give the measured IC50 of the entry "Cc1cc(C)cc(C(=O)N(CC(=O)NCc2cccnc2)Cc2ccc(C(=O)NO)cc2)c1"
A) 79

---

Selectivity index (SI) = (mammalian cell IC50)/(Pb EEF IC50): recorded values
# System: P. berghei exo-erythrocytic forms
# procedure.details: P. berghei-Luc liver stage assay
# Type: cell-based
# recorded.conditions: HepG2 vs Pb EEF
Please reply with the value in numeric form only.

Worked examples follow.
>  <given.smiles>
CC(C)(C)c1ccc(C(=O)N(CC(=O)NCc2ccccc2)Cc2ccc(C(=O)NO)cc2)cc1

>  <measured.on>
P. berghei exo-erythrocytic forms

>  <number>
23

$$$$
>  <given.smiles>
Cc1cc(C)cc(CNC(=O)CN(Cc2ccc(C(=O)NO)cc2)C(=O)c2cc(C)cc(C)c2)c1

>  <measured.on>
P. berghei exo-erythrocytic forms

>  <number>
35

$$$$
>  <given.smiles>
Cc1cc(C)cc(C(=O)N(CC(=O)NCc2cccnc2)Cc2ccc(C(=O)NO)cc2)c1

>  <measured.on>
P. berghei exo-erythrocytic forms

>  <number>
3

$$$$

Turning now to a further record.
Q) Supply measured Selectivity index (SI) = (mammalian cell IC50)/(Pb EEF IC50) of "CN(C)c1ccc(C(=O)N(CC(=O)NCc2ccccc2)Cc2ccc(C(=O)NO)cc2)cc1" in your reply.
A) 28

---

# measured.on: human HDAC6 (hHDAC6) (Homo sapiens, UniProt Q9UBN7)
# Sequence (Q9UBN7 1-1215): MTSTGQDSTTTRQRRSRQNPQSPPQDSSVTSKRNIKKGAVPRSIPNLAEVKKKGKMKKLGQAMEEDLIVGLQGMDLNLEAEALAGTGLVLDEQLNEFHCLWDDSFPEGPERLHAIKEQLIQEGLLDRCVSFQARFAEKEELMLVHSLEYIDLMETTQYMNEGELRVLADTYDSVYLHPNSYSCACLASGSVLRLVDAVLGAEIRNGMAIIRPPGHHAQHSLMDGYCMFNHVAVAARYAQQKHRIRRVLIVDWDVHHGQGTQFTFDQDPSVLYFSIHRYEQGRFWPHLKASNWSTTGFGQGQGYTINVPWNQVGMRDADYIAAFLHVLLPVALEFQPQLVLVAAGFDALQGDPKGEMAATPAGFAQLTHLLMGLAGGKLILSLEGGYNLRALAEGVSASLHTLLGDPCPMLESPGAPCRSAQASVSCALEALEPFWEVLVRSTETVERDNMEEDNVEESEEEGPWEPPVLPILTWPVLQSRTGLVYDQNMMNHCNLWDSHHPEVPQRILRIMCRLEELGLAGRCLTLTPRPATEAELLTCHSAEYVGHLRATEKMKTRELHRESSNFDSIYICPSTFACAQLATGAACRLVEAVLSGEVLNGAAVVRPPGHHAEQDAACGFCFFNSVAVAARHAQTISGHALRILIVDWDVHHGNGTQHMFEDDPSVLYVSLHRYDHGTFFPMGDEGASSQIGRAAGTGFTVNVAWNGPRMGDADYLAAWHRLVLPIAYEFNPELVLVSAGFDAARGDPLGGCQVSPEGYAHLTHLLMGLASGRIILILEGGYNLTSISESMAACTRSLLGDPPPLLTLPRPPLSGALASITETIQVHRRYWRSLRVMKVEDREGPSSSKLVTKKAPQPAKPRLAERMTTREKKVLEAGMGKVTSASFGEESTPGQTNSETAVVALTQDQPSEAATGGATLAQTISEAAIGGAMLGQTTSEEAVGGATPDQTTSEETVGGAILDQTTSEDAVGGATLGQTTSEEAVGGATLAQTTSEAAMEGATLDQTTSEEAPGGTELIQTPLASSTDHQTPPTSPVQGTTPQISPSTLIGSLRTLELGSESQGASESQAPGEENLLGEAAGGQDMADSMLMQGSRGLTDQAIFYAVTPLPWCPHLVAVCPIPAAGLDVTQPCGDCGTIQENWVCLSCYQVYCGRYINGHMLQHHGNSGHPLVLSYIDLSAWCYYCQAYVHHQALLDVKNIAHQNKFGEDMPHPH
# procedure.details: In vitro testing on hHDAC6
reported.metric: Selectivity index (SI) = hHDAC1/hHDAC6
Please reply with the value in numeric form only.

Worked examples follow.
>  <compound>
CNC(=O)CN(Cc1ccc(C(=O)NO)cc1)C(=O)c1cc(C)cc(C)c1

>  <measured.on>
human HDAC6 (hHDAC6) (Homo sapiens, UniProt Q9UBN7)

>  <Selectivity index (SI) = hHDAC1/hHDAC6>
7

$$$$
>  <compound>
CNC(=O)CN(Cc1ccc(C(=O)NO)cc1)C(=O)c1ccccc1C

>  <measured.on>
human HDAC6 (hHDAC6) (Homo sapiens, UniProt Q9UBN7)

>  <Selectivity index (SI) = hHDAC1/hHDAC6>
63

$$$$
>  <compound>
COc1ccccc1C(=O)N(CC(=O)NC(C)(C)C)Cc1ccc(C(=O)NO)cc1

>  <measured.on>
human HDAC6 (hHDAC6) (Homo sapiens, UniProt Q9UBN7)

>  <Selectivity index (SI) = hHDAC1/hHDAC6>
82

$$$$
>  <compound>
CN(C)c1ccc(C(=O)N(Cc2ccc(C(=O)NO)cc2)C(C)(C)C(=O)NC2CCCCC2)cc1

>  <measured.on>
human HDAC6 (hHDAC6) (Homo sapiens, UniProt Q9UBN7)

>  <Selectivity index (SI) = hHDAC1/hHDAC6>
5

$$$$
>  <compound>
Cc1ccccc1C(=O)N(CC(=O)NC(C)(C)C)Cc1ccc(C(=O)NO)cc1

>  <measured.on>
human HDAC6 (hHDAC6) (Homo sapiens, UniProt Q9UBN7)

>  <Selectivity index (SI) = hHDAC1/hHDAC6>
47

$$$$

Turning now to a further record.
Q) Supply measured Selectivity index (SI) = hHDAC1/hHDAC6 of CN(C)c1ccc(C(=O)N(Cc2ccc(C(=O)NO)cc2)C(C(=O)NC2CCCCC2)c2ccccc2)cc1 (racemic) in your reply.
A) 13

---

# Tested on: P. berghei exo-erythrocytic forms
# procedure.details: P. berghei-Luc liver stage assay
# Format: cell-based
# recorded.conditions: HepG2 vs Pb EEF
reported.metric: Selectivity index (SI) = (mammalian cell IC50)/(Pb EEF IC50)
Please reply with the value in numeric form only.

Worked examples follow.
>  <given.smiles>
Cc1cccc(CNC(=O)CN(Cc2ccc(C(=O)NO)cc2)C(=O)c2cc(C)cc(C)c2)c1

>  <number>
157

$$$$
>  <given.smiles>
CC(C)c1ccc(C(=O)N(CC(=O)NC2CCCCC2)c2ccc(C(=O)NO)cc2)cc1

>  <number>
4

$$$$

Q) For P. berghei exo-erythrocytic forms, give the measured Selectivity index (SI) = (mammalian cell IC50)/(Pb EEF IC50) of the entry "Cc1cc(C)cc(C(=O)N(CC(=O)NCc2ccc(Cl)cc2)Cc2ccc(C(=O)NO)cc2)c1"
A) 21

---

# measured.on: human HDAC1 (hHDAC1) (Homo sapiens)
# Sequence (Q13547 whole entry): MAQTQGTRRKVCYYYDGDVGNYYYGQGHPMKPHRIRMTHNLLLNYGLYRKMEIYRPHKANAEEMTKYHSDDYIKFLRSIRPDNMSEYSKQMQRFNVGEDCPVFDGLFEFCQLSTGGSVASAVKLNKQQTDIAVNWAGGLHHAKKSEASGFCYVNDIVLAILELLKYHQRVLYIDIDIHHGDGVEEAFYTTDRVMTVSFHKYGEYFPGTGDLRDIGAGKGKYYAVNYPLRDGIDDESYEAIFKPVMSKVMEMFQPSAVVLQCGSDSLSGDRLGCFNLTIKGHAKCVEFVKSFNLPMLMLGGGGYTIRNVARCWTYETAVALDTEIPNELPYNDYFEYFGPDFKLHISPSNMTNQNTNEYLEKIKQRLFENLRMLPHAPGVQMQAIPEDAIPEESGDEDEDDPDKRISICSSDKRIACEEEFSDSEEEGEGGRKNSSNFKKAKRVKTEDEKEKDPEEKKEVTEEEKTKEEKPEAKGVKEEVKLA
# procedure.details: In vitro testing on hHDAC1
log10 of IC50: recorded values
Please be aware that the numbers have been log10-transformed from IC50 in nM.

Worked examples follow.
>  <compound>
CN(C)c1ccc(C(=O)N(Cc2ccc(C(=O)NO)cc2)C(C(=O)NC2CCCCC2)c2ccccc2)cc1 (racemic)

>  <log10 of IC50>
2.92

$$$$
>  <compound>
CC(C)c1ccc(C(=O)N(CC(=O)NCc2ccccc2)Cc2ccc(C(=O)NO)cc2)cc1

>  <log10 of IC50>
1.28

$$$$
>  <compound>
CNC(=O)CN(Cc1ccc(C(=O)NO)cc1)C(=O)c1ccccc1C

>  <log10 of IC50>
3.30

$$$$
>  <compound>
CC(C)(C)c1ccc(C(=O)N(CC(=O)NCc2ccccc2)Cc2ccc(C(=O)NO)cc2)cc1

>  <log10 of IC50>
1.53

$$$$
>  <compound>
CN(C)c1ccc(C(=O)N(CC(=O)NCc2ccccc2)Cc2ccc(C(=O)NO)cc2)cc1

>  <log10 of IC50>
0.89

$$$$
>  <compound>
CNC(=O)CN(Cc1ccc(C(=O)NO)cc1)C(=O)c1cc(C)cc(C)c1

>  <log10 of IC50>
2.46

$$$$

Q) Supply measured log10 of IC50 of "CN(C)c1ccc(C(=O)N(Cc2ccc(C(=O)NO)cc2)C(C)(C)C(=O)NC2CCCCC2)cc1" in your reply.
A) 2.65
